study_target: EHMT2 (Homo sapiens)
Construct: host or cells: MDA-MB-231
Sequence (Q96KQ7 whole entry): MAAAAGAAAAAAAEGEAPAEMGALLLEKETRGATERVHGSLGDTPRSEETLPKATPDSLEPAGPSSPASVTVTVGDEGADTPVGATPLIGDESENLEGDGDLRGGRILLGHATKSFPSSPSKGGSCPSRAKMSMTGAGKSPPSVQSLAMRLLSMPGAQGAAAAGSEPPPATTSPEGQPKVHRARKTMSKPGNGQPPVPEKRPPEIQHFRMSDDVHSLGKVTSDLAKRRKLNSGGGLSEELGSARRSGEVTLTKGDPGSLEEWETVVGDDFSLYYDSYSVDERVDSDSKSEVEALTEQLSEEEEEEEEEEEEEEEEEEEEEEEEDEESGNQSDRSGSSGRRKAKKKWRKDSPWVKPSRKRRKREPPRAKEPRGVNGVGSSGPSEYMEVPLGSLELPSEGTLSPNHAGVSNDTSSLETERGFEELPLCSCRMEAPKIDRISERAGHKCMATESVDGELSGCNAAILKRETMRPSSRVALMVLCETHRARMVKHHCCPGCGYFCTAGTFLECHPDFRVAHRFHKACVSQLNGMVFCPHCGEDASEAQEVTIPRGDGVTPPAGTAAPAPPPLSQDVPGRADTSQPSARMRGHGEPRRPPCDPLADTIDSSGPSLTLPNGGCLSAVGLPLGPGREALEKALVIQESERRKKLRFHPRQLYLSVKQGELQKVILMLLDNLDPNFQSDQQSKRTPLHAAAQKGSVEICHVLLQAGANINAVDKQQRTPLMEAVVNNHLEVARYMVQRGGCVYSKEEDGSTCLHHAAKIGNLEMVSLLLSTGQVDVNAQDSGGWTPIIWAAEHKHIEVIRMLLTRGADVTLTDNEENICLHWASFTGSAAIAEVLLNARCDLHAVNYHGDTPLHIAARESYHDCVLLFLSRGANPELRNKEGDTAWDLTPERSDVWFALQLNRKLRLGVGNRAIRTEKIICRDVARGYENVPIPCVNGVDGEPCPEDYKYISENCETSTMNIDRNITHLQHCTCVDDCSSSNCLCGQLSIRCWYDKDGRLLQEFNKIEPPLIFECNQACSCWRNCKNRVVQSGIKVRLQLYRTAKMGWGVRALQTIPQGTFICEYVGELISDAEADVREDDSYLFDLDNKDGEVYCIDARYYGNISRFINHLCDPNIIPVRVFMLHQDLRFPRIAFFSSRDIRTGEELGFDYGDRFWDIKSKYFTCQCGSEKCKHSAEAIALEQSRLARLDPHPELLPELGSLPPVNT
assay_name: MDA-MB-231 H3K9me2 in-cell Western assay (EHMT2 ICW)
Type: cell-based
study_conditions: H3K9me2 in-cell Western, MDA-MB-231 cells; read-out: EHMT2 ICW (IC50 μM)
measured_endpoint: IC50

Worked examples follow.
Form: molecule = CNc1nc(C2CCOCC2)c2cc(OC)c(OCCCN3CCCC3)cc2n1 [Compound 521] ; IC50 = 1 to 10 µM

Recorded result, CCCC1(Nc2nccc(NC)n2)CCNCC1 [Compound 545] , IC50: > 10 µM

According to the records, this molecule CCc1cc(NC)nc(Nc2cnc(OC)c(OC[C@@H]3CCN(CC)C3)c2)n1 [Compound 601] displays IC50 of 0.1 to 1 µM

More entries:
Entry CNc1cc(C)nc(Nc2ccc(OC)c(OC[C@@H]3CN(C)C[C@H]3O)c2)n1 [Compound 491] ; IC50 = 1 to 10 µM

Entry under test: CNc1cc(C)nc(Nc2ccc(OC)c([C@H]3C[C@@H]3CN(C)C)c2)n1 [Compound 487] . Its IC50 was 1 to 10 µM

For CNc1ccnc(Nc2ccc(OC)c(OCc3ncn(C4CC4)n3)c2)n1 [Compound 480] the molecule record lists IC50 as > 10 µM

Value source: patent US20210198277A1
